# systemUnderTest: p-Akt3 in WM115 cells (Homo sapiens)
# Construct: SureFire assays to detect cellular p-Akt1, p-Akt2 and p-Akt3 levels in WM115 cells (Akt2/3) and LNCaP cells (Akt1); endogenous in cells; host or cells: WM115 (ECACC 91061232), insulin-stimulated
# testName: Phospho-Akt cellular SureFire assay, p-Akt3 in WM115 cells
# Assay type: cell-based
# conditionLabel: insulin stimulated, read-out: Biological Assay 2 IC50 (nM) Akt3 WM115
measurementLabel: IC50 (nM)
The reply should contain only the number, in nM.

Answered cases to consult:
COC(=O)N(C)[C@H]1CC[C@H](CC(=O)Nc2cc(-c3ccsc3)c(-c3ccc(C(C)(C)N)cc3)nn2)CC1 [Example A69]	710
CN(C(=O)C1CC1)[C@H]1CC[C@H](CC(=O)Nc2cc(-c3ccccc3)c(-c3ccc([C@]4(N)C[C@H](F)C4)cc3)nn2)CC1 [Example 71]	44
CC(=O)N(C)[C@H]1CC[C@H](CC(=O)Nc2cnc(-c3ccc([C@]4(N)C[C@H](F)C4)cc3)c(-c3ccccc3)c2)CC1 [Example 32]	36

Here is the next item to consider.
Specify IC50 for CN(C(=O)C1CCC1)[C@H]1CC[C@H](CC(=O)Nc2cc(-c3ccccc3)c(-c3ccc([C@]4(N)C[C@](C)(O)C4)cc3)cn2)CC1 [Example A76] and stop.
59

###

# systemUnderTest: Akt2 (Homo sapiens)
# Construct: unspecified tag, removed (detagged) (cleaved yes); purchased SignalChem and Proteros (Akt2); Merck Millipore (PDK1) 14-452 (PDK1); none given for Akt2
# Sequence (P31751 whole entry): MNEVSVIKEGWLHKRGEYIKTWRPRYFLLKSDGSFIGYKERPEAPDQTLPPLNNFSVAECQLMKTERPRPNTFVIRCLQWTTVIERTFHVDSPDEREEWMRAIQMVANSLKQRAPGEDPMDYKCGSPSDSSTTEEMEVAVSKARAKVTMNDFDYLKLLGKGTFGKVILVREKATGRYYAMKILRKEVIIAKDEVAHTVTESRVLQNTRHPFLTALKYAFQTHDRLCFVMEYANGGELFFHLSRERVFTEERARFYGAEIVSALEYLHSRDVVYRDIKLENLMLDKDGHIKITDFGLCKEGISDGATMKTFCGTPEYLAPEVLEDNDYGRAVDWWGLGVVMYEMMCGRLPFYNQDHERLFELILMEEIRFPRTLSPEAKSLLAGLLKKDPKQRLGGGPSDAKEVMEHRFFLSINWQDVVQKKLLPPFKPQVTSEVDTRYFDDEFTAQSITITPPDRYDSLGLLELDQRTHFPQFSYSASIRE
# testName: Akt activation assay (PDK1-mediated activation, LANCE Ultra crosstide TR-FRET), Akt2
# Format: biochemical
# conditionLabel: read-out: Biological Assay 1 IC50 (nM) Akt2
measurementLabel: log10 IC50 (log10 of the value in nM)
A value of 2 here means IC50 of 100 in nM, since values are log10.

Completed entries (count: 6):
CC(=O)N(C)[C@H]1CC[C@H](CC(=O)Nc2cc(-c3ccccc3)c(-c3ccc([C@]4(N)C[C@](C)(O)C4)c(F)c3)nn2)CC1	3.46
COC(=O)N(C)[C@H]1CC[C@H](CC(=O)Nc2cc(-c3ccccc3F)c(-c3ccc([C@]4(N)C[C@](C)(O)C4)cc3)cn2)CC1	2.15
CC(C)(N)c1ccc(-c2cnc(NC(=O)C[C@H]3CC[C@H](N4CCCC4=O)CC3)cc2-c2ccccc2)cc1	3.56
C[C@]1(O)C[C@@](N)(c2ccc(-c3nnc(NC(=O)C[C@H]4CC[C@H](N5CCCCC5=O)CC4)cc3-c3ccccc3)cc2)C1	1.72
NC1(c2ccc(-c3cnc(NC(=O)C[C@H]4CC[C@H](N5CCOC5=O)CC4)cc3-c3ccccc3F)cc2)CCC1	2.43
CC(=O)N(C)[C@H]1CC[C@H](CC(=O)Nc2cc(-c3ccccc3)c(-c3ccc(C4(N)CCC4)cc3)nn2)CC1	2.43

Item `CCOC(=O)N(C)[C@H]1CC[C@H](CC(=O)Nc2cnc(-c3ccc([C@]4(N)C[C@](C)(O)C4)cc3)c(-c3ccccc3)c2)CC1` : provide log10 IC50
1.68

Please report the measured log10 IC50 for `CN(C(=O)C1CCC1)[C@H]1CC[C@H](CC(=O)Nc2cc(-c3ccccc3)c(-c3ccc(C(C)(C)N)cc3)nn2)CC1`
3.74

Determine its reported log10 IC50: `CC(C)(N)c1ccc(-c2cnc(NC(=O)C[C@H]3CC[C@H](N4CCOC4=O)CC3)cc2-c2ccsc2)cc1`
4.04

Given the compound `CCC(=O)N(C)[C@H]1CC[C@H](CC(=O)Nc2cc(-c3ccccc3)c(-c3ccc(C4(N)CC4)cc3)cn2)CC1` , write its reported log10 IC50.
3.08

Please give the documented log10 IC50 of `CC(=O)N[C@H]1CC[C@H](CC(=O)Nc2cnc(-c3ccc([C@@H](C)N)cc3)c(-c3ccccc3)c2)CC1`
2.60

For the compound `CCN(C(C)=O)[C@H]1CC[C@H](CC(=O)Nc2cc(-c3ccccc3)c(-c3ccc([C@]4(N)C[C@](C)(O)C4)cc3)cn2)CC1` , report log10 IC50.
2.34

Consider the compound `CC(=O)N(C)[C@H]1CC[C@H](CC(=O)Nc2cc(-c3ccccc3)c(-c3ccc([C@]4(N)C[C@](C)(O)C4)cc3)nn2)CC1` . State its measured log10 IC50.
2.28

Let me know recorded log10 IC50 for `COCCN(C)[C@H]1CC[C@H](CC(=O)Nc2cc(-c3ccccc3)c(-c3ccc([C@]4(N)C[C@](C)(O)C4)cc3)cn2)CC1` , thanks.
2.57

# return recorded log10 IC50 for entry `CC(C)OC(=O)N(C)[C@H]1CC[C@H](CC(=O)Nc2cc(-c3ccccc3)c(-c3ccc([C@]4(N)C[C@](C)(O)C4)cc3)cn2)CC1`
2.32

###

# systemUnderTest: Akt1 (Homo sapiens)
# Construct: unspecified tag, removed (detagged) (cleaved yes); purchased SignalChem and Proteros (Akt1); Merck Millipore (PDK1) 14-452 (PDK1); none given for Akt1
# Sequence (P31749 whole entry): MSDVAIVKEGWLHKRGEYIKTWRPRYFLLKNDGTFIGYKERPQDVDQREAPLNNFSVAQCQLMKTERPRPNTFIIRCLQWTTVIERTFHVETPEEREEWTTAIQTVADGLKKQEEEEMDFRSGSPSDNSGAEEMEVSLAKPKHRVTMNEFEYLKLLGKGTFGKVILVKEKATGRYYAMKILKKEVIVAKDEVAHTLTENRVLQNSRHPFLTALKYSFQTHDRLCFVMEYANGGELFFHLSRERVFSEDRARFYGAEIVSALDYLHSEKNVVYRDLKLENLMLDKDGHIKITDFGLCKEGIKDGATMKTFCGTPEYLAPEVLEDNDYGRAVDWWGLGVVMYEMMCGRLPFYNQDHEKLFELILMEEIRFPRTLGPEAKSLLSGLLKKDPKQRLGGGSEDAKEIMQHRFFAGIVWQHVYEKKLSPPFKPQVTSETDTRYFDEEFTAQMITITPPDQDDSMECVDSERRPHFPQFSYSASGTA
# testName: Akt activation assay (PDK1-mediated activation, LANCE Ultra crosstide TR-FRET), Akt1
# Format: biochemical
# conditionLabel: read-out: Biological Assay 1 IC50 (nM) Akt1
Readings of IC50 for the listed compounds

Below, 5 compounds whose answers are already recorded.
CCOC(=O)N(C)[C@H]1CC[C@H](CC(=O)Nc2cc(-c3ccccc3)c(-c3ccc(C4(N)CC4)cc3)nn2)CC1	> 23000 nM
COC(=O)N(C)[C@H]1CC[C@H](CC(=O)Nc2cnc(-c3ccc(C(C)(C)N)c(F)c3)c(-c3ccccc3)c2)CC1	> 30000 nM
CC(C)(N)c1ccc(-c2ncc(NC(=O)C[C@H]3CC[C@H](NC(=O)CC4CC4)CC3)cc2-c2ccccc2)cc1	> 33000 nM
CC(C)C(=O)N(C)[C@H]1CC[C@H](CC(=O)Nc2cc(-c3ccccc3)c(-c3ccc(C4(N)CC4)cc3)nn2)CC1	> 13000 nM
N[C@]1(c2ccc(-c3cnc(NC(=O)C[C@H]4CC[C@H](N5CCOC5=O)CC4)cc3-c3ccccc3)cc2)C[C@@H](F)C1	> 30000 nM

Answer with the recorded IC50 for the compound listed here: `CC(C)C(=O)N(C)[C@H]1CC[C@H](CC(=O)Nc2cnc(-c3ccc(C(C)(C)N)cc3)c(-c3ccccc3)c2)CC1`
> 30000 nM

Identify measured IC50 corresponding to `COC(=O)N(C)[C@H]1CC[C@H](CC(=O)Nc2cc(-c3ccccc3)c(-c3ccc(C4(N)CCC4)cc3)cn2)CC1`
> 30000 nM

Entry `NC1(c2ccc(-c3nnc(NC(=O)C[C@H]4CC[C@H](N5CCOC5=O)CC4)cc3-c3ccccc3)cc2)CC(F)(F)C1` needs its IC50 filled in; supply it.
> 22800 nM

Report measured IC50; entry is `CCC(=O)N(C)[C@H]1CC[C@H](CC(=O)Nc2cc(-c3ccccc3)c(-c3ccc([C@]4(N)C[C@](C)(O)C4)c(F)c3)cn2)CC1`
> 30000 nM

Supply recorded IC50 for `CC(C)(C)C(=O)N[C@H]1CC[C@H](CC(=O)Nc2cnc(-c3ccc(C4(N)CC4)cc3)c(-c3ccccc3)c2)CC1` here.
> 22000 nM

###

Documented IC50 across a set of compounds
# systemUnderTest: p-Akt3 in WM115 cells (Homo sapiens, UniProt Q9Y243)
# Construct: SureFire assays to detect cellular p-Akt1, p-Akt2 and p-Akt3 levels in WM115 cells (Akt2/3) and LNCaP cells (Akt1); endogenous in cells; host or cells: WM115 (ECACC 91061232), insulin-stimulated
# Sequence (Q9Y243 whole entry): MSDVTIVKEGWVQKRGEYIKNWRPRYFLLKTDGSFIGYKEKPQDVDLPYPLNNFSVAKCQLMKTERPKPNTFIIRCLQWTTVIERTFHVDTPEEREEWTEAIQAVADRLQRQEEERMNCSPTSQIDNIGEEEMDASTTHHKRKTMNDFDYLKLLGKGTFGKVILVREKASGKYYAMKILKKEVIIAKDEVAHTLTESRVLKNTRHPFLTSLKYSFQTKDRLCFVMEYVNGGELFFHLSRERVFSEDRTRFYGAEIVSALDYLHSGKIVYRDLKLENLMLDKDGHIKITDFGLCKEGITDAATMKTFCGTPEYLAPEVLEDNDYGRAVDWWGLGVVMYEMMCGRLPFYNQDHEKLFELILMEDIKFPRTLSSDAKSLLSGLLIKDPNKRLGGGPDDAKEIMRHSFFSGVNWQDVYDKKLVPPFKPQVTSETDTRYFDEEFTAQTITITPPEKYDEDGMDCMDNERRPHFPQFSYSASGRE
# testName: Phospho-Akt cellular SureFire assay, p-Akt3 in WM115 cells
# Type: cell-based
# conditionLabel: insulin stimulated, read-out: Biological Assay 2 IC50 (nM) Akt3 WM115
Express your answer in nM, writing the number without its unit.

As a guide, the following entries are already answered.
C[C@]1(O)C[C@@](N)(c2ccc(-c3cnc(NC(=O)C[C@H]4CC[C@H](N5CCOC5=O)CC4)cc3-c3ccccc3)cc2)C1	17
C[C@]1(O)C[C@@](N)(c2ccc(-c3ncc(NC(=O)C[C@H]4CC[C@H](N5CCOCC5)CC4)cc3-c3ccccc3)cc2)C1	48
CC(=O)N(C)[C@H]1CC[C@H](CC(=O)Nc2cnc(-c3ccc(C4(N)CC4)cc3)c(-c3ccccc3)c2)CC1	220

Next item in the queue.
For the compound `CN(C(=O)C(F)F)[C@H]1CC[C@H](CC(=O)Nc2cc(-c3ccccc3)c(-c3ccc([C@]4(N)C[C@](C)(O)C4)cc3)cn2)CC1` , report IC50.
13

###

# IC50 per entry
# systemUnderTest: Akt2 (Homo sapiens)
# Construct: unspecified tag, removed (detagged) (cleaved yes); purchased SignalChem and Proteros (Akt2); Merck Millipore (PDK1) 14-452 (PDK1); none given for Akt2
# testName: Akt activation assay (PDK1-mediated activation, LANCE Ultra crosstide TR-FRET), Akt2
# Format: biochemical
# conditionLabel: read-out: Biological Assay 1 IC50 (nM) Akt2
Please reply with the bare figure in nM and do not write the unit itself.

CC(=O)N[C@H]1CC[C@H](C(C)C(=O)Nc2cnc(-c3ccc(C4(N)CCC4)cc3)c(-c3ccccc3)c2)CC1 (relative stereo)	240
CC(C)(N)c1ccc(-c2nnc(NC(=O)C[C@H]3CC[C@H](N4CCOC4=O)CC3)cc2-c2ccsc2)cc1	8900
COC(=O)N(C(C)C)[C@H]1CC[C@H](CC(=O)Nc2cc(-c3ccccc3)c(-c3ccc([C@]4(N)C[C@](C)(O)C4)cc3)cn2)CC1	220

// switching to the query compound
Query IC50 for `CC(=O)N(C)[C@H]1CC[C@H](CC(=O)Nc2cc(-c3ccccc3)c(-c3ccc(C(C)(C)N)cc3)nn2)CC1`
12000
